Tested on: MCF7
Experiment description: Cytotoxicity against human MCF7 cells up to 150 ug/ml
Type: functional, cell-based
Parameter: Activity

1) COc1ccc(C2NC(=O)c3c(C)cc(C)nc3N2)cc1OC (stereo unspecified)    Not toxic
2) COc1ccc(C2NC(=O)c3c(C)cc(C)nc3N2)cc1 (stereo unspecified)    Not toxic
3) COc1ccc(C2NC(=O)c3c(C)cc(C)nc3N2)c(O)c1 (stereo unspecified)    Not toxic
4) COc1cc(C2NC(=O)c3c(C)cc(C)nc3N2)cc(OC)c1OC (stereo unspecified)    Not toxic
5) Cc1cc(C)c2c(n1)NC(c1cccs1)NC2=O (stereo unspecified)    Not toxic
6) COc1cc(-c2nc3nc(C)cc(C)c3c(=O)[nH]2)cc(OC)c1OC    Not toxic
